# key: entry, value: logk10 (HSA retention factor)
# Measured on: human serum albumin (HSA) (Homo sapiens, UniProt P02768)
# Construct: purchased CHIRAL PAK
# Sequence (P02768 25-609): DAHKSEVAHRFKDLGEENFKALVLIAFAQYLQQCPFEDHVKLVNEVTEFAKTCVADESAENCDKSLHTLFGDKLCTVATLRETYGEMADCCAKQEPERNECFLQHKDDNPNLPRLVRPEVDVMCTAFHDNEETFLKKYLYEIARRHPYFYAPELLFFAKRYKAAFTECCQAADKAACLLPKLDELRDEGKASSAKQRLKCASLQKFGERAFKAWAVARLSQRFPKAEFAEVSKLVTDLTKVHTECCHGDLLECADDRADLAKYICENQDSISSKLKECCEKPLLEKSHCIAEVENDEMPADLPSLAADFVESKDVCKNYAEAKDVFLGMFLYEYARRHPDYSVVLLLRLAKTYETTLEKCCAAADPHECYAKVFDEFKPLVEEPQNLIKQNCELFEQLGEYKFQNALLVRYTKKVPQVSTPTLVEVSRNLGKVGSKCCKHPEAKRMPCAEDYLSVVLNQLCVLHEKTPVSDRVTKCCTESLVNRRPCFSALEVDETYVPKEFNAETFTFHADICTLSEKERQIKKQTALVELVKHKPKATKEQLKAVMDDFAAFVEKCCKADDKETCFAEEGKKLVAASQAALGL
# Measurement description: HSA chromatography and estimated plasma protein binding
# Type: in vitro ADME
# Condition details: pH 7.00, 10% acetonitrile
Keep the answer to the number alone.

Cc1c(-c2ccc(O)cc2)c(=O)oc2ccc(Br)cc12; 1.26
CC(=O)Oc1ccc(-c2c(C)c3cc(Br)ccc3oc2=O)cc1OC(C)=O; 0.89
Cc1c(-c2ccc(F)cc2)c(=O)oc2cccc(O)c12; 0.68
CC(=O)Oc1cccc2oc(=O)c(-c3ccccc3F)c(C)c12; 0.73
CC(=O)Oc1ccc(-c2c(C)c3cc(Br)ccc3oc2=O)cc1; 1.14

// lookup logk10 (HSA retention factor) for CC(=O)Oc1ccc(-c2c(C)c3ccccc3oc2=O)cc1OC(C)=O
0.16

// lookup logk10 (HSA retention factor) for CC(=O)Oc1cccc2oc(=O)c(-c3cccc(Br)c3)c(C)c12
0.83

// lookup logk10 (HSA retention factor) for Cc1c(-c2ccc(O)cc2)c(=O)oc2ccccc12
1.38

// lookup logk10 (HSA retention factor) for CC(=O)Oc1cccc2oc(=O)c(-c3cccc(Cl)c3)c(C)c12
0.80

* * *

# Tested on: A375 cells
# Measurement description: MTT cytotoxicity assay, A375
# Format: cell-based, human
# Condition details: Homo sapiens, A-375, 24 h, A375, 100 μΜ, read-out: Cell Toxicity A375 % (100 μΜ)
Definition: the class of an entry is the range in class 1 (below 10%), class 2 (10% to below 40%), class 3 (40% or more) that contains its cytotoxicity at 100 µM.

Below are worked cases with known answers.
Cc1c(-c2cccc(F)c2)c(=O)oc2cccc(O)c12; class 3
Cc1c(-c2ccccc2Cl)c(=O)oc2cccc(O)c12; class 2
CC(=O)Oc1ccc(-c2c(C)c3ccccc3oc2=O)cc1; class 3
CC(=O)Oc1ccc(-c2c(C)c3cc(Br)cc(Br)c3oc2=O)cc1OC(C)=O; class 3

Where would CC(=O)Oc1cccc2oc(=O)c(-c3cccc(Br)c3)c(C)c12 land among the classes by reported cytotoxicity at 100 µM?
class 1

Where would Cc1c(-c2ccc(F)cc2)c(=O)oc2cccc(O)c12 land among the classes by reported cytotoxicity at 100 µM?
class 3

Where would Cc1c(-c2ccc(O)cc2)c(=O)oc2ccc(Br)cc12 land among the classes by reported cytotoxicity at 100 µM?
class 1

Where would Cc1c(-c2ccccc2F)c(=O)oc2cccc(O)c12 land among the classes by reported cytotoxicity at 100 µM?
class 2

* * *

# Measurement description: IAM chromatography (IAM.PC.DD.2 column) and estimated human oral absorption
# Assay type: in vitro ADME
# Condition details: Equation (1) from logkw and physicochemical properties
Assay endpoint: %HOA estimated human oral absorption

The following molecules have reported results that may help.
CC(=O)Oc1ccc(-c2c(C)c3ccccc3oc2=O)cc1OC(C)=O; 99.4%
Cc1c(-c2ccc(O)cc2)c(=O)oc2ccccc12; 99.8%
Cc1c(-c2ccc(O)cc2)c(=O)oc2ccc(Br)cc12; 99.9%
CC(=O)Oc1cccc2oc(=O)c(-c3cccc(F)c3)c(C)c12; 99.7%
Cc1c(-c2ccc(F)cc2)c(=O)oc2cccc(O)c12; 99.7%
CC(=O)Oc1cccc2oc(=O)c(-c3ccc(Cl)cc3)c(C)c12; 99.9%
CC(=O)Oc1ccc(-c2c(C)c3cc(Cl)ccc3oc2=O)cc1OC(C)=O; 99.7%
CC(=O)Oc1ccc(-c2c(C)c3cc(Cl)ccc3oc2=O)cc1; 99.9%

// next item, %HOA estimated human oral absorption requested
// lookup %HOA estimated human oral absorption for CC(=O)Oc1cccc2oc(=O)c(-c3ccccc3Cl)c(C)c12
100%
